- System: Fibroblast
- test.description: Multiplex assay against human fibroblast
- Format: toxicity, cell-based
- condition.details: 24 h, 1 µM, compound concentration 1 uM, replicate 2
# strict inequality: Population Fragmented Nuclei (%) < 20% yields y, everything else yields n

compound=CCOC(=O)Nc1cc(-c2ccc(C)c(NS(C)(=O)=O)c2)nn2c(C)nnc12 class_label=n
compound=CC(C)OC(=O)N1CCC(Oc2ncnc3c2cnn3-c2ccc(S(C)(=O)=O)cc2F)CC1 class_label=y
compound="Cc1cccc(CN2CCN(C(c3ccccc3)c3ccc(Cl)cc3)CC2)c1.Cl.Cl (configuration not stated)" class_label=y
compound=CC(C)Oc1ccccc1C(=O)Nc1ccccc1C(=O)Nc1cccc(S(=O)(=O)C(F)(F)F)c1 class_label=n
compound=C=CC(=O)Nc1cccc(Sc2nc(Nc3ccc(N4CCN(C)CC4)cc3)ncc2Cl)c1 class_label=n
compound=Cl.O=C(O)c1cc(-c2ccc(C3CCNCC3)cc2)c2ccc(-c3ccc(C(F)(F)F)cc3)cc2c1 class_label=y
compound="O=C(c1cc2c(cc1F)OC(c1ccc(F)cc1)(c1ccc(Cl)cc1Cl)O2)N1CCOCC1 (configuration not stated)" class_label=y
